system: reserpine-induced hypothermia; test: Reversal of reserpine-induced hypothermia in mice (potential antidepressant activity); format: in vivo; settings: Mus musculus, po; minimum effective dose, p.o., statistically significant reversal of hypothermia induced by reserpine 5mg/kg i.p.; body temperature 1-4 hours post-drug; read-out: MED
Metric: log10 of minimal effective dose (log10 of the value in mg/kg)

* CC(C)OC(=O)NC1=NCC(c2ccccc2)CN1 (centres unmarked) [5|H|H|H|(CH3)2CHOC(O)-] | -1.40
* COC(=O)NC1=NC(c2ccc(F)cc2)CCN1 (centres unmarked) [4|H|4-F|H|CH3COC(O)-] | 0.00
* COC(=O)NC1=NCC(c2ccc(Cl)cc2Cl)CN1 (centres unmarked) [5|2-Cl|4-Cl|H|CH3OC(O)-] | 0.00
* COC(=O)NC1=NCC(c2ccccc2Cl)CN1 (centres unmarked) [5|H|2-Cl|H|CH3OC(O)-] | 1.00
* CCCOC(=O)NC1=NCC(c2cccc(Br)c2)CN1 (centres unmarked) [5|H|3-Br|H|CH3(CH)2OC(O)-] | 0.00
* CCCOC(=O)NC1=NC(c2ccccc2)CCN1 (centres unmarked) | 1.00
* COC(=O)NC1=NCC(c2ccc(F)cc2)CN1 (centres unmarked) [5|H|4-F|H|CH3OC(O)-] | -0.82
* COC(=O)NC1=NCC(c2ccccc2)CN1 (centres unmarked) [5|H|H|H|CH3OC(O)-] | -3.22
* COC(=O)NC1=NC(c2ccccc2)CCN1 (centres unmarked) [4|H|H|H|CH3OC(O)-] | 0.40
* COC(=O)NC1=NC(c2cccc(OC)c2)CCN1 (centres unmarked) [4|H|3-CH3O|H|CH3OC(O)] | 1.00
* NC1=NCC(c2cccc(Br)c2)CN1 (centres unmarked) [5|H|3-Br|H|H-] | 1.00
* COC(=O)NC1=NC(c2ccccc2C(F)(F)F)CCN1 (centres unmarked) [4|H|2-CF3|H|CH3OC(O)-] | 0.00
* CCOC(=O)NC1=NCC(c2ccccc2)CN1 (centres unmarked) [5|H|H|H|CH3CH2OC(O)-] | -1.40
* NC1=NCC(c2ccccc2)CN1 (centres unmarked) [5|H|H|H|H] | -2.00
* COC(=O)NC1=NCC(c2cccc(Br)c2)CN1 (centres unmarked) [5|H|3-Br|H|CH3OC(O)-] | 0.00
* NC1=NC(c2ccccc2)CCN1 (centres unmarked) [4|H|H|H|H] | 1.00
* COC(=O)NC1=NCC(c2ccccc2)CN1C (centres unmarked) [5|H|H|CH3|CH3OC(O)-] | -1.40
* COC(=O)NC1=NCC(c2c(Cl)cccc2Cl)CN1 (centres unmarked) [5|2-Cl|6-Cl|H|CH3OC(O)-] | -0.82
* CC(C)OC(=O)NC1=NCC(c2c(Cl)cccc2Cl)CN1 (centres unmarked) [5|2-Cl|6-Cl|H|(CH3)2CHOC(O)-] | 0.00
* COC(=O)NC1=NCC(c2cccc(OC)c2)CN1 (centres unmarked) [5|H|3-MeO|H|CH3OC(O)-] | 1.00

====

test: Acute intraperitoneal toxicity and behavior in mice (Example 14); conditions: mouse, in vivo, ip
Metric: LD50 (mg/kg)

• COC(=O)NC1=NCC(c2ccccc2)CN1.O=C(O)/C=C\C(=O)O (stereo not shown) = 26.5
